Cited source for all entries: ChEMBL document CHEMBL1125013

Biological target: Thymidylate synthase (Mus musculus, UniProt P07607)
Sequence (P07607 whole entry): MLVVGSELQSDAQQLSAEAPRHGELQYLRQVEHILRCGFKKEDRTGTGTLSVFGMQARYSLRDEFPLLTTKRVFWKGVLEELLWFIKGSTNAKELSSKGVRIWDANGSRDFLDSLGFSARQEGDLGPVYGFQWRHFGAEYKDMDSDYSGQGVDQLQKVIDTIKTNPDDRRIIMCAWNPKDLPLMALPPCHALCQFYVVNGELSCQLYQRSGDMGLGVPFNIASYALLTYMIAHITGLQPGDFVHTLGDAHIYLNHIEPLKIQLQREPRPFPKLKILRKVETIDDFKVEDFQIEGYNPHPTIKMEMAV
valueKind: pIC50
Give bare numbers, as −log10 of the molar value.

# smilesData, reportedValue
records = [
    ("C#CCN(Cc1ccc2nc(N)[nH]c(=O)c2c1)c1ccc(C(=O)N[C@@H](CCC(=O)O)C(=O)O)c(F)c1", 8.05),
]

Shifting focus to the compound that follows.
Enquiry: I would be grateful if you could share the reported pIC50 for C#CCN(Cc1ccc2nc(C)[nH]c(=O)c2c1)c1ccc(C(=O)N[C@@H](CCC(=O)O)C(=O)O)c(F)c1 .
Return: 7.70
